B1: Twister Ribozyme (parent)
chain: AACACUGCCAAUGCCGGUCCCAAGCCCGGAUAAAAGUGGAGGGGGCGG

variants of: B1; test: self-cleavage, relative activity (ratio to wild type); higher = more cleavage; co-transcriptional
Consider the reported self-cleavage of an entry and match it to a band in lower bin (below 0.1), middle bin (0.1 to below 0.3), upper bin (0.3 or more)

Check out these entries, answers already filled in.
### Prompt Which class holds C20G G39A ?
### Response middle bin

### Prompt Which class holds U12G A33G ?
### Response upper bin

### Prompt Which class holds A1G A35G ?
### Response upper bin

### Prompt Which class holds G24U A33C ?
### Response middle bin

### Prompt Which class holds G42U G43U ?
### Response middle bin

### Prompt Which class holds C9A C46A ?
### Response upper bin

Others:
### Prompt Which class holds G24A A34G ?
### Response lower bin

### Prompt Which class holds C15G G39C ?
### Response middle bin

### Prompt Which class holds A4C C14A ?
### Response upper bin

### Prompt Which class holds C20A A40C ?
### Response middle bin

### Prompt Which class holds U31C G47C ?
### Response upper bin

### Prompt Which class holds C9G C25A ?
### Response lower bin

### Prompt Which class holds A4U G38U ?
### Response middle bin

### Prompt Which class holds G17C G47C ?
### Response middle bin

### Prompt Which class holds A23U G24U ?
### Response lower bin

### Prompt Which class holds C9G G48C ?
### Response upper bin

### Prompt Which class holds A22C U37C ?
### Response upper bin

### Prompt Which class holds A4U A33U ?
### Response lower bin

### Prompt Which class holds C9A G24A ?
### Response lower bin

### Prompt Which class holds "G28U" ?
### Response upper bin

### Prompt Which class holds C9U U31G ?
### Response upper bin

Value source: the RNAGym collection of RNA variant scans (doi:10.7554/elife.80360)
